# Concentration of Endocrine-Disrupting Substance in Vital Sample, Maternal Serum listing for each entry below
Type: in vivo, human
CONDITION INFO: in fat; maternal serum; samples from 10 mothers
All answers are understood in ppb, so give the number only.

Answered cases to consult:
{"COMPOUND": "Clc1c(Cl)c(Cl)c(Cl)c(Cl)c1Cl", "MEAS VALUE": 15.71}
{"COMPOUND": "ClC1C(Cl)C(Cl)C(Cl)C(Cl)C1Cl (centres unmarked)", "MEAS VALUE": 271.49}
{"COMPOUND": "ClC1=C(Cl)C2(Cl)C3C(Cl)C=CC3C1(Cl)C2(Cl)Cl (centres unmarked)", "MEAS VALUE": 1.17}
{"COMPOUND": "ClC1=C(Cl)C2(Cl)C3C4OC4C(Cl)C3C1(Cl)C2(Cl)Cl (centres unmarked) [HCE, heptachloroepoxide]", "MEAS VALUE": 2.61}

API: the following record is the query input.
Query (compound): ClC(Cl)=C(c1ccc(Cl)cc1)c1ccc(Cl)cc1 ; field requested: Concentration of Endocrine-Disrupting Substance in Vital Sample, Maternal Serum
314.48

---

Format: in vivo, human
CONDITION INFO: in fat; mother's milk; samples from 10 mothers
QUANTITY NAME: Concentration of Endocrine-Disrupting Substance in Vital Sample, Mother's Milk (ppb)
All answers are understood in ppb, so give the number only.

Answered cases to consult:
{"COMPOUND": "ClC1C(Cl)C(Cl)C(Cl)C(Cl)C1Cl (centres unmarked)", "MEAS VALUE": 315.58}
{"COMPOUND": "Clc1c(Cl)c(Cl)c(Cl)c(Cl)c1Cl", "MEAS VALUE": 14.08}
{"COMPOUND": "ClC1=C(Cl)C2(Cl)C3C4OC4C(Cl)C3C1(Cl)C2(Cl)Cl (centres unmarked) [HCE, heptachloroepoxide]", "MEAS VALUE": 3.06}

Query (compound): ClC1=C(Cl)C2(Cl)C3C(Cl)C=CC3C1(Cl)C2(Cl)Cl (centres unmarked) ; field requested: Concentration of Endocrine-Disrupting Substance in Vital Sample, Mother's Milk
0.30

Try ClC(Cl)=C(c1ccc(Cl)cc1)c1ccc(Cl)cc1 next.
343.62
